Experiment: solvent given as SMILES
Details: in C1CCCCC1
The following compounds are listed with their measured absorption maximum values.
Reported metric: absorption maximum (nm)

- C/C(=C\c1ccc(Cl)cc1)c1nc2ccccc2s1: 320
- CCN(CC)c1ccc2cc(-c3nc4ccccc4s3)c(=O)oc2c1: 425.4
- CCc1ccc(/C=N/c2cc(C(C)C)c(O)cc2C)cc1: 344
- c1ccc(-c2nc(-c3c[nH]c4ccccc34)n3ccccc23)cc1: 382
- C[Si](C)(C)C#Cc1ccc(C#C[Si](C)(C)C)c2ccccc12: 347
- CC(C)c1cc(C(C)C)c(B2c3cc(N4c5ccccc5Oc5ccccc54)ccc3N(c3ccccc3)c3ccc(N4c5ccccc5Oc5ccccc54)cc32)c(C(C)C)c1: 372.79
- CCCC1(CCC)c2ccccc2-c2ccc(-c3ccc4c(c3)C(CCC)(CCC)c3cc(-c5ccc6c(c5)C(CCC)(CCC)c5ccccc5-6)ccc3-4)cc21: 350
- COc1ccc2c3c(c4ccc(OC)cc4c2c1)C(C)(C)c1ccccc1-3: 388
- C[SiH](C)c1ccc([SiH](C)C)c2ccccc12: 300
